Could you please report measured pEC50 for the items listed next?
# TEST SYSTEM: UniProtKB O14842
# Sequence (O14842 whole entry): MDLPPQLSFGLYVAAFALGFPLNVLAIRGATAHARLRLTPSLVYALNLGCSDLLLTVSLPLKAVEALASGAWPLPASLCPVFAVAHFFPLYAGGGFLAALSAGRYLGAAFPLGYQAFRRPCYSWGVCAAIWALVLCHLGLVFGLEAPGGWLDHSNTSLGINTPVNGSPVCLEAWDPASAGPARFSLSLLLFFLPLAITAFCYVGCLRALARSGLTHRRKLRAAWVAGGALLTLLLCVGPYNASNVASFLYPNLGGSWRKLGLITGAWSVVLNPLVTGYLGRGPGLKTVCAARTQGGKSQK
# ASSAY PROTOCOL: Inositol Phosphate Turnover (IP1) Assay 2
# Type: cell-based
# Set-up: expressed in transfected cells
# MEASUREMENT SETUP: HEK cells stably expressing human GPR40, Table 2, read-out: Human IP1
One number for each entry, as −log10 of the molar value.

COMPOUND	pEC50
COc1ccc(F)c(-c2ccc(C3CCc4ccc(C(C)CC(=O)O)cc4O3)cc2)c1 (single isomer, unassigned) [Example 141]	6.45

Please give pEC50, item by item, for the list that follows.
1. COc1ccc(F)c(-c2ccc(C3CCc4ccc([C@H](C5CC5)[C@H](C)C(=O)O)cc4O3)nc2C(F)(F)F)c1 (single isomer, unassigned) [Example 111a]
2. COc1ccc(F)c(-c2ccc(C3CCc4ccc(C(C)C(C)C(=O)O)cc4O3)cc2)c1 (single isomer, unassigned) [Example 147b]
3. COc1ccc(F)c(-c2ccc(C3CCc4ccc(C(C5CCC5)C(C)C(=O)O)cc4O3)cc2)c1 (single isomer, unassigned) [Example 154]
4. COc1ccc(F)c(-c2ccc(C3CCc4ccc(C(CC(=O)O)C5CC5)cc4O3)cc2C2=CCCC2(C)C)c1 (single isomer, unassigned) [Example 101a]
5. COc1ccc(F)c(-c2ccc(C3CCc4ccc(C(CC(=O)O)C5CC5)cc4O3)cc2C2=CCCC2(C)C)c1 (single isomer, unassigned) [Example 101b]

Reply |
1. 8.22
2. 5.50
3. 7.07
4. 6.18
5. 6.15

Please give pEC50, item by item, for the list that follows.
1. COc1cc(-c2ccc(C3CCc4ccc([C@@H](CC(=O)O)C5CC5)cc4O3)c(F)c2)ccn1 (mixture of isomers) [Example 96]
2. COc1ccc(F)c(-c2ccc([C@@H]3CCc4ccc([C@H](C5CC5)[C@H](C)C(=O)O)cc4O3)cc2)c1 (single isomer, unassigned) [Example 63]
3. COc1cc(-c2ccc(C3CCc4ccc([C@H](C5CC5)[C@H](C)C(=O)O)cc4O3)cc2)c(F)cn1 (single isomer, unassigned) [Example 117b]

Reply |
7.85
8.48
9.77

Please give pEC50, item by item, for the list that follows.
1. COc1ccc(F)c(-c2cnc(C3CCc4ccc([C@H](C5CC5)C(C)C(=O)O)cc4O3)nc2)c1 (single isomer, unassigned) [Example 124a]
2. COc1cc(-c2ccc(C3CCc4ccc([C@@H](CC(=O)O)C5CC5)cc4O3)c(F)c2)c(F)cn1 (mixture of isomers) [Example 91]
3. COc1ccc(F)c(-c2ccc(C3CCc4ccc([C@H](C5CC5)[C@H](C)C(=O)O)nc4O3)cc2)c1 (mixture of isomers) [Example 137]
4. O=C(O)C[C@H](c1ccc2c(c1)OC(c1ccc(-c3cc(OC(F)(F)F)ccc3F)cc1)CC2)C1CC1 (some centres unmarked) [Example 76]
5. COc1cc(-c2ccc(C3CCc4ccc([C@H](C5CC5)[C@H](C)C(=O)O)cc4O3)cc2C(OC)C2CC2)c(F)cn1 (mixture of isomers) [Example 130]

Reply |
1. 7.29
2. 8.44
3. 6.34
4. 6.19
5. 9.05

Please give pEC50, item by item, for the list that follows.
1. COc1ccc(F)c(-c2ccc(C3CCc4ccc(C(C5CCC5)C(C)C(=O)O)cc4O3)cc2)c1 (single isomer, unassigned) [Example 155]
2. COc1ccc(F)c(-c2ccc(C3CCc4ccc([C@@H](CC(=O)O)C5CC5)cc4O3)cc2OC(F)(F)F)c1 (mixture of isomers) [Example 99]
3. COc1cc(-c2cnc(C3CCc4ccc([C@H](C5CC5)[C@H](C)C(=O)O)cc4O3)c(F)c2)c(F)cn1 (single isomer, unassigned) [Example 110a]

Reply |
1: 9.00; 2: 7.54; 3: 8.17

Please give pEC50, item by item, for the list that follows.
1. COc1cc(-c2ccc(C3CCc4ccc([C@H](C5CC5)[C@H](C)C(=O)O)cc4O3)cc2C(OC)C(C)(C)C)ccn1 (mixture of isomers) [Example 129]
2. COc1ccc(F)c(-c2ccc(C3CCc4ccc([C@H](C5CC5)[C@H](C)C(=O)O)cc4O3)nc2C2=CCCC2(C)C)c1 (mixture of isomers) [Example 114]
3. COc1cc(-c2ccc(C3CCc4ccc([C@H](C5CC5)[C@H](C)C(=O)O)cc4O3)nc2)ccn1 (single isomer, unassigned) [Example 120b]
4. COc1cc(-c2ccc(C3CCc4ccc([C@H](C5CC5)[C@H](C)C(=O)O)cc4O3)nc2)ccn1 (single isomer, unassigned) [Example 120a]
5. COc1ccc(F)c(-c2ccc(C3CCc4ccc([C@@H](CC(=O)O)C5CC5)cc4O3)cc2C(OC)C(C)(C)C)c1 (single isomer, unassigned) [Example 125a]
6. COc1ccc(F)c(-c2ccc(C3CCc4ccc(C(C)CC(=O)O)cc4O3)cc2)c1 (single isomer, unassigned) [Example 140]

Reply |
1: 9.30; 2: 8.06; 3: 8.72; 4: 8.36; 5: 8.14; 6: 5.91
